Test system: adrenal arrhythmia in mice
Assay type: in vivo
Settings: mice, dose 0.5 mg/kg, introduced internally
Counter-ions that a name gives are not always drawn.
Kindly return T if reported Lifetime is no lower than 20 min; return F if it is lower.

# compound, category.label
records = [
    ("O=C(O)CCCC(=O)NCCc1c[nH]c2ccccc12 [Compound XIII mono-sodium salt]", "T"),
    ("O=C(O)CCCC(=O)N[C@@H](Cc1c[nH]cn1)C(=O)O", "T"),
    ("O=C(O)CCCC(=O)N[C@@H](Cc1c[nH]c2ccccc12)C(=O)O [Compound II mono-sodium salt]", "F"),
    ("O=C(O)CCCC(=O)NCCc1ccncc1", "T"),
    ("O=C(O)CCCC(=O)NCCc1c[nH]cn1", "F"),
    ("O=C(O)CCCC(=O)N[C@@H](Cc1c[nH]c2ccccc12)C(=O)O [Compound II, N^α-glutaryl-L-tryptophane]", "F"),
    ("O=C(O)CCCC(=O)NCCc1ccccn1", "T"),
]

Enquiry: Hi team, for O=C([O-])CCC(=O)NC(Cc1c[nH]c2ccccc12)C(=O)[O-].[K+].[K+] (racemic) [reference compound] , is the recorded Lifetime at or above 20 min?
Return: F

----------
Recorded Number of animals in groups lethal by entry
Tested on: adrenal arrhythmia in mice
Assay type: in vivo
Conditions: mice, dose 0.05 mg/kg, introduced internally
Structures can show the parent of a compound that is named as a salt. Marks after values point to notes of the source that are not given here.

// known answers, use as guide
# molecule, Number of animals in groups lethal
data = [
    ("O=C(O)CCCC(=O)N[C@@H](Cc1c[nH]c2ccccc12)C(=O)O [Compound II, N^α-glutaryl-L-tryptophane]", "7*"),
    ("O=C(O)CCCC(=O)NCCc1c[nH]cn1", 11),
    ("O=C(O)CCCC(=O)NCCc1ccccn1", "7*"),
    ("O=C([O-])CCC(=O)NC(Cc1c[nH]c2ccccc12)C(=O)[O-].[K+].[K+] (racemic) [reference compound]", 14),
    ("O=C(O)CCCC(=O)NCCc1ccncc1", 8),
    ("O=C(O)CCCC(=O)N[C@@H](Cc1c[nH]c2ccccc12)C(=O)O [Compound II mono-sodium salt]", "7*"),
    ("O=C(O)CCCC(=O)N[C@@H](Cc1c[nH]cn1)C(=O)O", 12),
]

Next:
Enquiry: Answer with the recorded Number of animals in groups lethal of O=C(O)CCCC(=O)NCCc1c[nH]c2ccccc12 [Compound XIII mono-sodium salt] only.
Return: 6*

----------
System: adrenal arrhythmia in mice
Type: in vivo
Settings: mice, dose 0.05 mg/kg, introduced internally
Where a name gives a salt, the structure may show the parent alone.
observable: Animals with AV blockage (%)

// known answers, use as guide
# molecule, observable, test.value
data = [
    ("O=C([O-])CCC(=O)NC(Cc1c[nH]c2ccccc12)C(=O)[O-].[K+].[K+] (racemic) [reference compound]", "Animals with AV blockage (%)", "(43%)"),
    ("O=C(O)CCCC(=O)N[C@@H](Cc1c[nH]cn1)C(=O)O [Compound III, N^α-glutaryl-L-histidine]", "Animals with AV blockage (%)", "(29%)"),
    ("O=C(O)CCCC(=O)NCCc1ccccn1 [Compound X]", "Animals with AV blockage (%)", "(70%)"),
    ("O=C(O)CCCC(=O)NCCc1c[nH]cn1 [Compound IV, glutaryl histamine]", "Animals with AV blockage (%)", "(21%)"),
    ("O=C(O)CCCC(=O)NCCc1c[nH]c2ccccc12 [Compound XIII mono-sodium salt]", "Animals with AV blockage (%)", "(43%)"),
    ("O=C(O)CCCC(=O)N[C@@H](Cc1c[nH]c2ccccc12)C(=O)O [Compound II, N^α-glutaryl-L-tryptophane]", "Animals with AV blockage (%)", "(0%)"),
]

Next:
Enquiry: Determine reported Animals with AV blockage (%) for O=C(O)CCCC(=O)N[C@@H](Cc1c[nH]c2ccccc12)C(=O)O [Compound II mono-sodium salt] ; test system: adrenal arrhythmia in mice.
Return: (0%)

----------
System: adrenal arrhythmia in mice
Format: in vivo
Settings: mice, dose 0.5 mg/kg, introduced internally
Counter-ions that a name gives are not always drawn. Marks after values point to notes of the source that are not given here.
Recorded Number of animals in groups lethal by entry

Enquiry: Answer with the recorded Number of animals in groups lethal of O=C(O)CCCC(=O)N[C@@H](Cc1c[nH]c2ccccc12)C(=O)O [Compound II mono-sodium salt] only.
Return: 7*

Enquiry: Answer with the recorded Number of animals in groups lethal of O=C(O)CCCC(=O)NCCc1c[nH]cn1 only.
Return: 14

Enquiry: Answer with the recorded Number of animals in groups lethal of O=C(O)CCCC(=O)NCCc1ccncc1 only.
Return: 6*

----------
Recorded Number of animals in groups with AV blockage by entry
System: adrenal arrhythmia in mice
Format: in vivo
Settings: mice, dose 0.5 mg/kg, introduced internally
Structures can show the parent of a compound that is named as a salt. Marks after values point to notes of the source that are not given here.

Enquiry: Answer with the recorded Number of animals in groups with AV blockage of O=C(O)CCCC(=O)NCCc1ccncc1 only.
Return: 5

Enquiry: Answer with the recorded Number of animals in groups with AV blockage of O=C(O)CCCC(=O)N[C@@H](Cc1c[nH]c2ccccc12)C(=O)O [Compound II mono-sodium salt] only.
Return: 5*

Enquiry: Answer with the recorded Number of animals in groups with AV blockage of O=C(O)CCCC(=O)NCCc1c[nH]c2ccccc12 [Compound XIII mono-sodium salt] only.
Return: 4*

Enquiry: Answer with the recorded Number of animals in groups with AV blockage of O=C(O)CCCC(=O)N[C@@H](Cc1c[nH]cn1)C(=O)O only.
Return: 3*

Enquiry: Answer with the recorded Number of animals in groups with AV blockage of O=C([O-])CCC(=O)NC(Cc1c[nH]c2ccccc12)C(=O)[O-].[K+].[K+] (racemic) [reference compound] only.
Return: 8

Enquiry: Answer with the recorded Number of animals in groups with AV blockage of O=C(O)CCCC(=O)NCCc1c[nH]cn1 only.
Return: 4*

Enquiry: Answer with the recorded Number of animals in groups with AV blockage of O=C(O)CCCC(=O)NCCc1ccccn1 only.
Return: 6

Enquiry: Answer with the recorded Number of animals in groups with AV blockage of O=C(O)CCCC(=O)N[C@@H](Cc1c[nH]c2ccccc12)C(=O)O [Compound II, N^α-glutaryl-L-tryptophane] only.
Return: 4*

----------
Tested on: adrenal arrhythmia in mice
Type: in vivo
Settings: mice, dose 0.5 mg/kg, introduced internally
Counter-ions that a name gives are not always drawn. Marks after values point to notes of the source that are not given here.
observable: Number of animals in groups lethal

// known answers, use as guide
# compound, observable, test.value
data = [
    ("O=C(O)CCCC(=O)NCCc1ccccn1", "Number of animals in groups lethal", "7*"),
    ("O=C(O)CCCC(=O)NCCc1c[nH]c2ccccc12 [Compound XIII mono-sodium salt]", "Number of animals in groups lethal", "5*"),
    ("O=C(O)CCCC(=O)N[C@@H](Cc1c[nH]c2ccccc12)C(=O)O [Compound II, N^α-glutaryl-L-tryptophane]", "Number of animals in groups lethal", "7*"),
    ("O=C(O)CCCC(=O)N[C@@H](Cc1c[nH]cn1)C(=O)O", "Number of animals in groups lethal", 11),
]

Enquiry: Answer with the recorded Number of animals in groups lethal of O=C([O-])CCC(=O)NC(Cc1c[nH]c2ccccc12)C(=O)[O-].[K+].[K+] (racemic) [reference compound] only.
Return: 14
